systemTested: Amine oxidase [flavin-containing] B (Homo sapiens, UniProt P27338)
Sequence (P27338 whole entry): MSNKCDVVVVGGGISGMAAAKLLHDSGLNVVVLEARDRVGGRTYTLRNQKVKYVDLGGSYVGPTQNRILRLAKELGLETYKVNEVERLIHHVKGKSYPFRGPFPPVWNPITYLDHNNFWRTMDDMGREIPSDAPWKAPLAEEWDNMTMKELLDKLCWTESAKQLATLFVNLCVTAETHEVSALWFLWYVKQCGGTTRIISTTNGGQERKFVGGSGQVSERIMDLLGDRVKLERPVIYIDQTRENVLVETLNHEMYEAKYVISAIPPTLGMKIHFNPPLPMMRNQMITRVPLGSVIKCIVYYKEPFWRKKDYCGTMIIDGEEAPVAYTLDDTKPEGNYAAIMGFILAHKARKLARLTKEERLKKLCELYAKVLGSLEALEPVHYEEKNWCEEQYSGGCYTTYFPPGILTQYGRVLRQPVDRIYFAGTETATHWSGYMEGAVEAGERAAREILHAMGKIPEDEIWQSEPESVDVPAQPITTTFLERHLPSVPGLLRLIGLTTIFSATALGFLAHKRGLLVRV
testSummary: Activity of human liver MAOB assessed as specific activity at 1 mM
reportedConditions: 1000 µM
# note: boundary value 10 nmol/min/mg maps to 0 (no); Activity below it maps to 1 (yes)

Examples from the recorded data:
{"molecule": "C1=C(c2ccccc2)CCN(CC2CC2)C1", "assignedLabel": "1 (yes)"}
{"molecule": "CC(C)N1CC=C(c2ccccc2)CC1", "assignedLabel": "1 (yes)"}
{"molecule": "CC1=C(c2ccccc2)CCN(C)C1", "assignedLabel": "1 (yes)"}
{"molecule": "C1=C(c2ccccc2)CCNC1", "assignedLabel": "0 (no)"}
{"molecule": "CCCCN1CC=C(c2ccccc2)CC1", "assignedLabel": "1 (yes)"}

Let us examine a further case.
For CN1CC=CC(c2ccccc2)C1 (stereo not given) , is the recorded Activity below the cut-off of 10 nmol/min/mg?
1 (yes)

These data points were gathered from ChEMBL document CHEMBL1151663.
